# experimental-target: T1, Human GPC3 (2119-GP; R&D systems), biotinylated (human, UniProt P51654 25-559, biotinylated using standard NHS chemistry)
# T1 construct: Bought protein; also called human Glypican-3
# T1 sequence (P51654 25-559 limits assumed): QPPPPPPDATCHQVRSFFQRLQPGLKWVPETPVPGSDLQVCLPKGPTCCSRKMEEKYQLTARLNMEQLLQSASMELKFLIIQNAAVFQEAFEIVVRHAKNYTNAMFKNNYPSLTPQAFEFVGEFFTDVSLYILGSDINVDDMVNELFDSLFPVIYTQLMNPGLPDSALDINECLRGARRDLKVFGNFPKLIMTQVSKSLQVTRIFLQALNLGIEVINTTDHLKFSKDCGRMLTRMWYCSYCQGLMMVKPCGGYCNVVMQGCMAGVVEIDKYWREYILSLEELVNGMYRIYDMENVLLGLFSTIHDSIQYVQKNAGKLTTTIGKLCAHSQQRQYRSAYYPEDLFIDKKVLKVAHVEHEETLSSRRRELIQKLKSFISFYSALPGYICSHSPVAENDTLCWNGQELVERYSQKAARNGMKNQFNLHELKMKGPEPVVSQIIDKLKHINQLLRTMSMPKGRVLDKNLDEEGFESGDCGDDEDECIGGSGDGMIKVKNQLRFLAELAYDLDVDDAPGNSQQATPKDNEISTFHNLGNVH
# experiment-notes: SPR (Biacore T200), biotinylated GPC3 captured on chip, mutein in flow
property-name: pKd
Keep in mind that pKd stands for -log10 of concentration in molar terms.

Measured pKd, lipocalin mutein of SEQ ID NO: 13 (designed binder, hNGAL (Lcn2) mutein; also called optimized GPC3 specific lipocalin mutein) QDSTSDLIPAPPLSKVPLQQNFQDNQFQGKWYVVGRAGNLGLREDKDPPKMWATIYELKEDKSYDVTNVRFARKKCMYSIGTFVPGSQPGEFTLGQIKSEPGSTANLVRVVSTNYNQHAMVFFKEVYQNREIFFITLYGRTKELTSELKENFIRFSKSLGLPENHIVFPVPIDQCIDGSAWSHPQFEK : 10.15

The recorded pKd for entry lipocalin mutein of SEQ ID NO: 9 (designed binder, hNGAL (Lcn2) mutein; also called optimized GPC3 specific lipocalin mutein) QDSTSDLIPAPPLSKVPLQQNFQDNQFQGKWYVVGRAGNVGLREDKDPPKMWATIYELKEDKSYDVTNVRFARKKCTYSIGTFVPGSQPGEFTLGQIKSEPGGTANLVRVVSTNYNQHAMVFFKEVYQNREIFFIILYGRTKELTSELKENFIRFSKSLGLPENHIVFPVPIDQCIDGSAWSHPQFEK equals 10.27

The value of pKd measured for the binder lipocalin mutein of SEQ ID NO: 3 (designed binder, hNGAL (Lcn2) mutein; also called non-optimized GPC3-specific Lcn2 mutein; mother clone) QDSTSDLIPAPPLSKVPLQQNFQDNQFHGKWYVVGVAGNAMLREDKDPLKMRATIYELKEDKSYNVTGVSFWRKKCHYKIGTFVPGSQPGEFTLGDIKSGPGQTSNLVRVVSTNYNQHAMVFFKEVRQNREWFAITLYGRTKELTSELKENFIRFSKSLGLPENHIVFPVPIDQCIDGSAWSHPQFEK turned out to be 9.41

The reported value for lipocalin mutein of SEQ ID NO: 15 (designed binder, hNGAL (Lcn2) mutein; also called optimized GPC3 specific lipocalin mutein) QDSTSDLIPAPPLSKVPLQQNFQDNQFQGKWYVVGRAGNVGLREDKDPPKMRATIYELKEDKSYDVTGVRFGEKKIKYSIGTFVPGSQPGEFTLGQIKSQPGDTANLVRVVSTNYNQHAMVFFKEVYQNREIFFIILYGRTKELTSELKENFIRFSKSLGLPENHIVFPVPIDQAIDGSAWSHPQFEK in terms of pKd is 10.46

# pKd (binder: lipocalin mutein of SEQ ID NO: 6 (designed binder, hNGAL (Lcn2) mutein; also called optimized GPC3 specific lipocalin mutein) QDSTSDLIPAPPLSKVPLQQNFQDNQFQGKWYVVGVAGNVRLREDKDPPKMRATIYELKEDKSYDVTGVSFRGKKCHYKIGTFVPGSQPGEFTLGDIKSGPGETSNLVRVVSTNYNQHAMVFFKEVRQNREWFFITLYGRTKELTSELKENFIRFSKSLGLPENHIVFPVPIDQCIDGSAWSHPQFEK ) is 10.72

pKd recorded for this binder, lipocalin mutein of SEQ ID NO: 12 (designed binder, hNGAL (Lcn2) mutein; also called optimized GPC3 specific lipocalin mutein) QDSTSDLIPAPPLSKVPLQQNFQDNQFQGKWYVVGRAGNVALREDKDPPKMRATIYELKEDKSYDVTNVVFAGKKCKYSIGTFVPGSQPGEFTLGRIKSPPGNTANLVRVVSTNYNQHAMVFFKEVYQNREIFFIILYGRTKELTSELKENFIRFSKSLGLPENHIVFPVPIDQCIDGSAWSHPQFEK , is 10.43

# pKd (binder: lipocalin mutein of SEQ ID NO: 16 (designed binder, hNGAL (Lcn2) mutein; also called optimized GPC3 specific lipocalin mutein) QDSTSDLIPAPPLSKVPLQQNFQDNQFQGKWYVVGRAGNVGLREDKDPPKMRATIYELKEDKSYDVTGVRFDSKKVTYSIGTFVPGSQPGEFTLGQIKSEPGNTANLVRVVSTNYNQHAMVFFKEVYQNREIFFIILYGRTKELTSELKENFIRFSKSLGLPENHIVFPVPIDQAIDGSAWSHPQFEK ) is 9.77
